Attribute: k1 (synthesis-secretion coefficient)
- Assay type: in vivo, human
- RECORDED CONDITIONS: subject S02
Use mL/min as the unit, but write only the number.

Please review the following examples before continuing.
# COMPOUND, UNIT INFO, k1 (synthesis-secretion coefficient)
measured = [
    ("CC/C=C\\C/C=C\\C/C=C\\C/C=C\\C/C=C\\C/C=C\\CCC(=O)O [DHA, Docosahexaenoic acid]", "mL/min", 0.12),
    ("CC/C=C\\C/C=C\\C/C=C\\C/C=C\\C/C=C\\CCCCCCCC(=O)O [TPAn-3, tetracosapentaenoic acid]", "mL/min", 0.12),
    ("CC/C=C\\C/C=C\\C/C=C\\C/C=C\\C/C=C\\CCCCCC(=O)O [DPAn-3, docosapentaenoic acid]", "mL/min", 2.32),
]

(Q) # return recorded k1 (synthesis-secretion coefficient) for entry CC/C=C\C/C=C\C/C=C\C/C=C\C/C=C\CCCC(=O)O [EPA, eicosapentaenoic acid]
(A) 1.29

###

- Assay type: in vivo, human
- RECORDED CONDITIONS: subject S01; k1 x unesterified ALA 2.52 nmol/mL
Entries and their measured Jsyn (whole body synthesis-secretion rate from circulating unesterified 18:3n-3) follow.
Numeric only. Scale: nmol/min

// solved cases for Jsyn (whole body synthesis-secretion rate from circulating unesterified 18:3n-3) follow
# COMPOUND, TEST RESULT
rows = [
    ("CC/C=C\\C/C=C\\C/C=C\\C/C=C\\C/C=C\\CCCCCCCC(=O)O [TPAn-3, tetracosapentaenoic acid]", 0.58),
    ("CC/C=C\\C/C=C\\C/C=C\\C/C=C\\C/C=C\\CCCCCC(=O)O [DPAn-3, docosapentaenoic acid]", 3.62),
    ("CC/C=C\\C/C=C\\C/C=C\\C/C=C\\C/C=C\\C/C=C\\CCC(=O)O [DHA, Docosahexaenoic acid]", 0.99),
]

Shifting focus to the compound that follows.
(Q) Assign Jsyn (whole body synthesis-secretion rate from circulating unesterified 18:3n-3) to the following record: CC/C=C\C/C=C\C/C=C\C/C=C\C/C=C\CCCC(=O)O [EPA, eicosapentaenoic acid]
(A) 4.81

###

- Assay type: in vivo, human
- RECORDED CONDITIONS: subject S02; Jsyn / amount in plasma total lipids
OUTCOME MEASURE: F (turnover of esterified n-3 HUFA in plasma) (min⁻¹)
Form entry: value (min⁻¹) — number only.

# SMILES ENTRY, TEST RESULT
data = [
    ("CC/C=C\\C/C=C\\C/C=C\\C/C=C\\C/C=C\\CCCCCCCC(=O)O", 0.0001),
    ("CC/C=C\\C/C=C\\C/C=C\\C/C=C\\C/C=C\\CCCCCC(=O)O", 0.00019),
]

(Q) # return recorded F (turnover of esterified n-3 HUFA in plasma) for entry CC/C=C\C/C=C\C/C=C\C/C=C\C/C=C\C/C=C\CCC(=O)O
(A) 3.7e-06

(Q) Consider the compound CC/C=C\C/C=C\C/C=C\C/C=C\C/C=C\CCCC(=O)O . State its measured F (turnover of esterified n-3 HUFA in plasma).
(A) 0.00015

###

- ASSAY NAME: Plasma unlabeled fatty acid concentrations
- Format: in vivo, human
- RECORDED CONDITIONS: subject S02; unlabeled; mean of 17 time points; low linoleate diet
Returns one of true (1) or false (0); true (1) when Fatty acid concentration in plasma total lipids (mean) is >= 40 nmol/mL.

# COMPOUND, CATEGORY
rows = [
    ("CC/C=C\\C/C=C\\C/C=C\\C/C=C\\C/C=C\\CCCCCCCC(=O)O [TPAn-3, tetracosapentaenoic acid]", "false (0)"),
    ("CCCCCCCCCCCCCC(=O)O [14:0]", "false (0)"),
    ("CCCCC/C=C\\C/C=C\\CCCCCCCCCC(=O)O [20:2n-6]", "false (0)"),
    ("CCCCC/C=C\\C/C=C\\C/C=C\\CCCCCCC(=O)O [20:3n-6]", "true (1)"),
    ("CCCCCC/C=C\\CCCCCCCC(=O)O [16:1n-7]", "true (1)"),
]

(Q) Could you please find out whether CCCCCCCCCCCCCCCCCC(=O)O [18:0] has Fatty acid concentration in plasma total lipids (mean) that meets 40 nmol/mL or exceeds it?
(A) true (1)

(Q) I'd appreciate it if you could say whether CCCCCCCCCCCCCCCC(=O)O [16:0] has Fatty acid concentration in plasma total lipids (mean) at least equal to 40 nmol/mL.
(A) true (1)
